Entries and their IC50 values follow.
Target: protein kinase C (PKC)
Assay: Protein Kinase C (PKC) Inhibitory Activity
Settings: rat brain PKC, H1 histone substrate, 10 μM [γ-32P]ATP, 30° C., 30 minutes
measured_metric: IC50

COc1cc(OCC(=O)Nc2nc3ccccc3s2)ccc1C(=O)/C=C/C(=O)N1CCC(N2CCCN(C)CC2)CC1 = 80 nM
Cc1cc(OCC(=O)Nc2nc3ccccc3s2)ccc1C(=O)/C=C/C(=O)N1CCC(N2CCCN(C)CC2)CC1 = 300 nM
COc1cc(C(=O)/C=C/C(=O)N2CCOC(CN3CCN(C)CC3)C2)ccc1OCC(=O)Nc1nc2ccccc2s1 (centres unmarked) = 300 nM
COc1cc(C(=O)/C=C/C(=O)N2CCC(N3CCCN(C)CC3)CC2)ccc1OCC(=O)Nc1nc2ccccc2s1 = 300 nM
Cc1c(OCC(=O)Nc2nc3ccccc3s2)ccc(C(=O)/C=C/C(=O)N2CCC(N3CCCN(C)CC3)CC2)c1C = 800 nM
CN1CCN(CC2CN(C(=O)/C=C/C(=O)c3ccc(OCC(=O)Nc4nc5ccccc5s4)c(F)c3)CCO2)CC1 (centres unmarked) = 800 nM
O=C(COc1ccc(C(=O)/C=C/C(=O)N2CCN(O)CC2)cc1C(F)(F)F)Nc1nc2ccccc2s1 = 600 nM
COc1cc(C(=O)/C=C/C(=O)N2CCC(N3CCN(C)CC3)CC2)ccc1OCC(=O)Nc1nc2ccccc2s1 = 100 nM

Reference for the values: patent US6140330A
